System: BT-549
test-name: NCI tumour cell line growth inhibition, 48 h
Activity calls are given as the source filed them. No stated cut-off is given here; in the data, active = GI50 up to about 1.1 µM and inactive = higher.
Outcomes you can answer with include only these: active, inactive

{"columns": ["molecule", "class"],
 "data": [
  ["COc1ccc(CC(O)CN2CCOCC2)cc1 (stereo unspecified)", "inactive"],
  ["NCCC1([N+](=O)[O-])CCNCC1", "inactive"],
  ["CNc1cc(Cl)ccc1C(=O)N1CCC[C@H]1CO", "inactive"]
]}

For `Cc1cc(C)nc(NS(=O)(=O)c2ccc(NC(=O)NC(F)(F)F)cc2)n1` , which call appears in the assay record?
inactive

For NC(=O)c1nc[nH]c1/N=N/SCC(N)C(=O)O (stereo unspecified) , which call appears in the assay record?
inactive

For CC(NC(=O)C(NC(=O)C(NC(=O)C(F)(F)F)C(C)C)C(C)C)C(=O)Oc1c(Cl)c(Cl)c(Cl)c(Cl)c1Cl (stereo unspecified) , which call appears in the assay record?
inactive

For `CCCCCc1cc2cc3c(c(O)c2c(=O)[nH]1)C1(CCC3)C(=O)c2c(O)ccc(O)c2C1=O` , which call appears in the assay record?
inactive

For `CC(C)(Cc1ccccc1)N1C(=O)N1C(C)(C)Cc1ccccc1` , which call appears in the assay record?
inactive

For `S=C(N/N=C/c1ccccn1)N1CC2CCC(CC2)C1` , which call appears in the assay record?
active

For `Cn1nc(S(N)(=O)=O)s/c1=N/C(N)=S` , which call appears in the assay record?
inactive

For COC(=O)C1c2c(c3ccccc3n2C(=O)OC)CCN2CCC1C(S(=O)(=O)c1ccccc1)C2=O (stereo unspecified) , which call appears in the assay record?
inactive
